target: IGF-1 receptor (Homo sapiens, UniProt P08069); test: IGF-1 receptor binding assay (competition, scintillation proximity); set-up: expressed in transfected cells; plasma membrane fragments; settings: Table 15; read-out: Receptor Binding IGR-1R EC50
pEC50: −log10 of the molar value.

- molecule: "DP22LysC: DP22 cleaved at the lysine of CTP to produce a two chain insulin (protein) chain 1: APPPSLPSPSRLPGPSDTPILPQEEEEERGPEHLCGAHLVDALYLVCGDRGFYSSSSRAPPPSLPSPSRLPGPSDTPILPQK chain 2: GIVDECCHRSCDLRRLENYCN"
  pEC50: 7.23
- molecule: "… AHLVDALYLVCGDRGFYGYGSSSRRAPQTGIVDECCHRSCDLRRLENYCN (protein, listed as Homo sapiens) MGSSSSKAPPPSLPSPSRLPGPSDTPILPQEEEEEKGPEHLCGAHLVDALYLVCGDRGFYGYGSSSRRAPQTGIVDECCHRSCDLRRLENYCN"
  pEC50: 6.67
- molecule: "GEEEEEKGPEHLCGAHLVDALYLVCGDRGFYSSSSRAPPPSLPSPSRLPGPSD TPILPQKGIVDECCHRSCDLRRLENYCN (protein, listed as Homo sapiens) GEEEEEKGPEHLCGAHLVDALYLVCGDRGFYSSSSRAPPPSLPSPSRLPGPSDTPILPQKGIVDECCHRSCDLRRLENYCN"
  pEC50: 7.43
